# Tested on: SN12C renal
# test.description: NCI tumour cell line growth inhibition, 48 h
recorded.metric: GI50

Which GI50 value is on record for O=[N+]([O-])c1ccc(C=Cc2ccccc2)cc1.[C-]#[O+].[C-]#[O+].[C-]#[O+].[Cr] ?
10.1 µM

Next compound: CC(=O)/C=C/c1cn(C(=O)OC(C)(C)C)c2ccc(Br)cc12
13.8 µM

And the next one, COc1cccc(OC(=O)c2ccc(C(F)(F)F)nc2Nc2cc(Cl)ccc2C)c1 ?
29.2 µM

# repeat for CN(C)CCCn1c(=O)c2ccccc2c2ccccc21
16.9 µM

For OCc1ccc(N2CCCC2c2ccccc2)cc1Cl (stereo not given) then?
8.22 µM

Same again, this time with OCC1OC(n2cnc3c(N/N=C\c4ccccn4)ncnc32)C(O)C1O (stereo not given)
0.107 µM

Do the same for CCCCCCCCCCCCCCCCCC[n+]1ccc2c(C)c3c(c(C)c2c1)c1cc(O)ccc1n3CC please
1.79 µM

How about this compound: C1CCC([PH+](C2CCCCC2)C2CCCCC2[PH+](C2CCCCC2)C2CCCCC2)CC1.[Au].[CH-]1CCCCC1CC1CCCC[N-]1 (stereo not given)
0.285 µM

Again, but for O=S(=O)(c1ccc(Cl)cc1)C(Cl)(Cl)Cl
3.54 µM

Then O=C1C(=C([O-])c2ccccc2)C(=O)c2ccccc21.O=C1C(=C([O-])c2ccccc2)C(=O)c2ccccc21.[Fe+2] ?
> 100 µM

###

# Test system: NCI-H460 lung
# test.description: NCI tumour cell line growth inhibition, 48 h
Please go through the items and note down their TGI.

# returns recorded TGI (system: NCI-H460 lung) for COc1cc(/C=C/c2nc(NC(=S)Nc3ccccc3)nnc2C)cc(OC)c1OC
36.8 µM

Please give the result for CCN(CC)CC1CCCCN1CC(=O)N1c2ccccc2C(=O)Nc2cccnc21 (stereo unspecified) too.
> 100 µM

Okay, and COc1ccc(-c2nc(Nc3cc(C)[nH]n3)c3ccccc3n2)cc1 ?
> 100 µM

One more compound: O=C1NC(=O)C(N2C(=O)c3ccccc3C2=O)CC1O (stereo unspecified)
> 100 µM

# repeat for CCC(CCCN)Nc1cc(OC)cc2c(C)ccnc12 (stereo unspecified)
32.3 µM

Continue with COc1cccc(OC(=O)c2ccc(C(F)(F)F)nc2Nc2cc(Cl)ccc2C)c1
15.4 µM

Check O=C(/C=C/c1cc2ccccc2[nH]c1=O)/C=C/c1cc2ccccc2[nH]c1=O too.
> 100 µM

Moving on to CC(=O)Nc1ccc(SC#N)c2c(NC(C)=O)cccc12
> 100 µM

What about this compound? O=C(CCl)NNC1=Nc2ccc(Cl)cc2SC1
20.4 µM

COc1cccc(OC)c1C(=O)OCc1ccccc1 , same question.
> 100 µM

Field entry: COC(=O)c1onc(-c2c(OC)cc(OC)cc2OC)c1C(=O)OC
> 100 µM

###

# System: UACC-257 melanoma
# test.description: NCI tumour cell line growth inhibition, 48 h
Threshold rule: TGI greater than or equal to 30 µM is yes (1); below that, no (0).

Given CC1=C2[C@@H](CC1)[C@]1(C)O[C@@](c3ccccc3)(C[C@H]1OC(=O)CO)[C@H]2OC(=O)/C=C/c1ccccc1 , state whether its TGI is at least 30 µM.
yes (1)

Next entry: N#C[C@H](OC1OC(COC2OC(CO)C(O)C(O)C2O)C(O)C(O)C1O)c1ccccc1 (stereo not given in full)
yes (1)

COc1cccc(OC(=O)c2ccc(C(F)(F)F)nc2Nc2cc(Cl)ccc2C)c1 ?
yes (1)

Subsequent entry: O=C1CCCN1C(=O)CS(=O)(=O)c1ccccc1
yes (1)

O=S(=O)(Nc1cc(Sc2cccc3cccnc23)c(O)c2ccccc12)c1ccc(F)cc1 ?
no (0)

Now this one: CCn1c2ccccc2c2ccc3c(c21)C(=O)C=CC3=O
no (0)

Moving on to O=S1(=O)OCCOS(=O)(=O)C1(F)Br
yes (1)

Record: CCc1ccc2c(c1)N(CCO)C1=C(C(=O)OC1)C2c1cccc(Br)c1 (stereo not given)
no (0)

Param item: Cc1ccc(C2OC(COCc3ccc(Cl)cc3)C(OCc3ccc(Cl)cc3)C2O)cc1 (stereo not given)
yes (1)
